TARGET_ENTITY: T1, dNELF-E (Drosophila, UniProt P92204 1-280)
T1 sequence: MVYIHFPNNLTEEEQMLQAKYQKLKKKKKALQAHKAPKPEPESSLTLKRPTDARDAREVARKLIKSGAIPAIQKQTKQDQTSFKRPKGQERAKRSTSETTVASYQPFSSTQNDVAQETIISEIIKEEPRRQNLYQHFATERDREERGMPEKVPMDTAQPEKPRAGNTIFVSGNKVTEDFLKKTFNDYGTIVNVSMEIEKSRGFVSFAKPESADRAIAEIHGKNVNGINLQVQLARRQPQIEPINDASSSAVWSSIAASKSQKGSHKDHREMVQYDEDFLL
TEST_NAME: fluorescence polarization; 10 mM HEPES-NaOH pH 7.5, 100 mM NaCl, 25 mM KCl, 1 mM MgCl2, 0.02% Tween-20, 0.01% IGEPAL CA-630, 10 µg/ml yeast tRNA; 2 nM RNA, 0-2000 nM protein, 1-2 h, binding temperature not stated; gel 5% acrylamide 0.5X TBE at 4 °C
EXPERIMENTAL_PARAMETERS: protein: recombinant; tags: N-terminal His6 (pHIS-parallel1); label: 3' fluorescein (5-thiosemicarbazide); no predicted secondary structure
pKd: −log10 of the molar value.

[
  {
    "BINDER": "GGGGACUGAGGAGCAACACGGGCGAUUGGGGCCA (ssRNA) [Napt1-Δstem]",
    "pKd": 6.57
  }
]
